Assign pIC50 to each entry below.
Tested on: BGC-823
procedure-details: Cytotoxicity against human BGC823 cells by MTT assay
Assay type: functional, cell-based
Numbers only, as −log10 of the molar value.

# annotated cases, reported pIC50 shown
>>> test_result("CCCCOc1ccc2c3ccnc(C)c3n(CC(C)C)c2c1")
4.92
>>> test_result("c1ccc(C[n+]2ccc3c(c2)[nH]c2ccccc23)cc1")
4.04
>>> test_result("CCOc1ccc2c3ccnc(C)c3n(CC)c2c1")
4.24
>>> test_result("CCCCn1c2cc(OCC)ccc2c2ccnc(C)c21")
4.43
>>> test_result("CCCCCCCCOc1ccc2c3ccnc(C)c3n(CCCc3ccccc3)c2c1")
4.76

I'm hoping you can list pIC50 for every compound here, please.
1. CCCCn1c2cc(O)ccc2c2ccnc(C)c21
2. CCCCCCCCCCOc1ccc2c3ccnc(C)c3n(CCCC)c2c1
3. CCCCn1c2ccccc2c2cc(CO)nc(C)c21
4. CCn1c2cc(OCc3c(F)c(F)c(F)c(F)c3F)ccc2c2cc[n+](Cc3ccccc3)c(C)c21
5. CCCCCCCCOc1ccc2c3cc[n+](Cc4ccccc4)c(C)c3n(CCCc3ccccc3)c2c1

4.04
4.55
3.90
5.34
5.41

Ref: ChEMBL document CHEMBL1165904
